Origin of measurements: patent US20040053822A1

Quick reference: pIC50 of the listed items.
biological target: HLA-B*5101 (B51) (Homo sapiens, UniProt P01889, A329T/A93T/A95T/C349S/D138N/D201E/D98Y/E187L/E204Q/E69T/G107R/I218V/K202T/L105A/L119W/N104I/Q94N/R106L/R155S/R180L/S101N/S121T/S35A/S48A/V306I/V36M/Y195H/Y91F); assay: Purified HLA class I peptide binding assay, B51; details: binding affinity, HLA-B7 supermotif-bearing peptides; read-out: B*5101 nM
Residues, ends and D or L forms follow the SMILES beside them.
Please report pIC50 as the negative decimal logarithm of the molar concentration, giving only the number.

# molecule CC[C@H](C)[C@H](NC(=O)[C@H](Cc1ccc(O)cc1)NC(=O)[C@H](CO)NC(=O)[C@@H](NC(=O)[C@H](CCC(=O)O)NC(=O)[C@@H](NC(=O)[C@H](CC(C)C)NC(=O)[C@H](C)NC(=O)[C@H](CCCNC(=N)N)NC(=O)[C@@H]1CCCN1C(=O)[C@@H](N)Cc1ccccc1)C(C)C)[C@@H](C)O)C(=O)O ; its pIC50 = 6.93

# molecule CC[C@H](C)[C@H](NC(=O)[C@H](CC(C)C)NC(=O)[C@H](CC(=O)O)NC(=O)[C@H](CCC(N)=O)NC(=O)[C@H](CCSC)NC(=O)[C@H](CC(C)C)NC(=O)[C@H](CC(C)C)NC(=O)[C@H](CCCCN)NC(=O)[C@H](CCCNC(=N)N)NC(=O)[C@@H]1CCCN1C(=O)[C@@H](N)Cc1ccccc1)C(=O)O ; its pIC50 = 6.44

# molecule CSCC[C@H](NC(=O)[C@@H](NC(=O)[C@@H](NC(=O)[C@@H]1CCCN1C(=O)[C@@H](N)Cc1ccccc1)[C@@H](C)O)[C@@H](C)O)C(=O)N[C@@H](CC(N)=O)C(=O)N[C@@H](Cc1ccc(O)cc1)C(=O)N1CCC[C@H]1C(=O)N[C@@H](CC(C)C)C(=O)O (H-FPTTMNYPL-OH; N-terminus and C-terminus assumed) ; its pIC50 = 6.37

----------
Quick reference: log10(IC50) of the listed items.
molecular target: HLA-A*0203 (Homo sapiens, UniProt P04439, A173T/D140Y/D185E/D98H/E277Q/G131W/G231S/I119V/I121R/I166T/I218V/L180W/L300P/L318F/N151K/N90K/P208A/P217A/Q86G/Q94H/R138H/R169H/T345S); test: Purified HLA class I peptide binding assay, A*0203; conditions: binding affinity, A2 supermotif peptides and analogs
For clarity, the numbers are log10 values of IC50 expressed in nM.

# annotated cases, reported log10(IC50) shown
CC[C@H](C)[C@H](NC(=O)[C@@H](N)CCCCN)C(=O)N[C@@H](Cc1c[nH]c2ccccc12)C(=O)N[C@@H](CCC(=O)O)C(=O)N[C@@H](CCC(=O)O)C(=O)N[C@@H](CC(C)C)C(=O)N[C@@H](CO)C(=O)N[C@@H](CCSC)C(=O)N[C@@H](CC(C)C)C(=O)O    2.24
CC[C@H](C)[C@H](NC(=O)[C@H](CC(C)C)NC(=O)[C@H](C)N)C(=O)N[C@@H](CCC(=O)O)C(=O)N[C@H](C(=O)N[C@@H](CO)C(=O)N[C@@H](Cc1ccc(O)cc1)C(=O)N[C@H](C(=O)N[C@@H](CCCCN)C(=O)N[C@H](C(=O)O)C(C)C)C(C)C)[C@@H](C)O    2.10
CC(C)C[C@H](NC(=O)[C@H](Cc1ccccc1)NC(=O)[C@H](Cc1c[nH]cn1)NC(=O)[C@@H](NC(=O)[C@H](CC(C)C)NC(=O)[C@H](CCC(=O)O)NC(=O)[C@H](C)NC(=O)[C@H](CC(C)C)NC(=O)[C@@H](N)CCCCN)C(C)C)C(=O)O    0.77
CC[C@H](C)[C@H](NC(=O)[C@H](Cc1ccc(O)cc1)NC(=O)[C@H](CC(C)C)NC(=O)[C@@H](N)Cc1c[nH]cn1)C(=O)N[C@@H](Cc1ccccc1)C(=O)N[C@@H](C)C(=O)N[C@H](C(=O)N[C@@H](CS)C(=O)N[C@@H](CC(C)C)C(=O)NCC(=O)N[C@@H](CC(C)C)C(=O)O)[C@@H](C)O    2.89

// moving on: another record for log10(IC50)
# compound CC(C)C[C@H](NC(=O)[C@H](CCC(=O)O)NC(=O)[C@H](C)NC(=O)[C@H](CC(C)C)NC(=O)[C@@H](N)CCCCN)C(=O)N[C@H](C(=O)N[C@@H](Cc1c[nH]cn1)C(=O)N[C@@H](Cc1ccccc1)C(=O)N[C@H](C(=O)O)C(C)C)C(C)C ; its log10(IC50) = 1.34

----------
Quick reference: IC50 of the listed items.
target: HLA-B*0702 (Homo sapiens); experiment: Purified HLA class I peptide binding assay, B*0702; details: binding affinity, HLA-B7 supermotif-bearing peptides
// units = nM; emit number, no label

# annotated cases, reported IC50 shown
CC[C@H](C)[C@H](NC(=O)[C@H](CC(C)C)NC(=O)[C@@H](NC(=O)[C@H](Cc1ccc(O)cc1)NC(=O)[C@H](CC(C)C)NC(=O)[C@H](Cc1c[nH]cn1)NC(=O)[C@H](CO)NC(=O)[C@@H](NC(=O)[C@@H]1CCCN1C(=O)[C@@H](N)Cc1ccccc1)[C@@H](C)CC)[C@@H](C)CC)C(=O)O    97
CC[C@H](C)[C@H](NC(=O)[C@@H]1CCCN1C(=O)[C@H](Cc1ccc(O)cc1)NC(=O)[C@H](CC(N)=O)NC(=O)[C@H](CCSC)NC(=O)[C@@H](NC(=O)[C@@H](NC(=O)[C@@H]1CCCN1C(=O)[C@@H](N)Cc1ccccc1)[C@@H](C)O)[C@@H](C)O)C(=O)O    59
CC[C@H](C)[C@H](NC(=O)[C@H](CC(C)C)NC(=O)[C@H](CC(=O)O)NC(=O)[C@H](CCC(N)=O)NC(=O)[C@H](CCSC)NC(=O)[C@H](CC(C)C)NC(=O)[C@H](CC(C)C)NC(=O)[C@H](CCCCN)NC(=O)[C@H](CCCNC(=N)N)NC(=O)[C@@H]1CCCN1C(=O)[C@@H](N)Cc1ccccc1)C(=O)O    86

// moving on: another record for IC50
# compound CC[C@H](C)[C@H](NC(=O)[C@@H](NC(=O)[C@H](Cc1ccc(O)cc1)NC(=O)[C@H](CC(C)C)NC(=O)[C@H](Cc1c[nH]cn1)NC(=O)CNC(=O)[C@@H](NC(=O)[C@@H]1CCCN1C(=O)[C@@H](N)Cc1ccccc1)[C@@H](C)CC)[C@@H](C)CC)C(=O)O ; its IC50 = 3.4

----------
target: HLA-B*5401 (Homo sapiens, UniProt P01889, A329T/C349S/D138N/D201E/E176V/E187T/E204Q/E69G/I76V/K202T/L119W/R155S/R180L/S121T/S35A/S48A/V127L/V306I/V36M/Y140L); experiment: Purified HLA class I peptide binding assay, B*5401; details: binding affinity, HLA-B7 supermotif-bearing peptides
Residues, ends and D or L forms follow the SMILES beside them.
Quick reference: pIC50 of the listed items.
Please report pIC50 as the negative decimal logarithm of the molar concentration, giving only the number.

# annotated cases, reported pIC50 shown
CC[C@H](C)[C@H](NC(=O)[C@H](CO)NC(=O)[C@H](CCC(N)=O)NC(=O)[C@H](CO)NC(=O)[C@H](Cc1c[nH]c2ccccc12)NC(=O)[C@H](CC(C)C)NC(=O)[C@@H]1CCCN1C(=O)[C@@H](N)Cc1ccccc1)C(=O)O    7.82
CC[C@H](C)[C@H](NC(=O)[C@H](CC(C)C)NC(=O)[C@H](CC(=O)O)NC(=O)[C@H](CCC(N)=O)NC(=O)[C@H](CCSC)NC(=O)[C@H](CC(C)C)NC(=O)[C@H](CC(C)C)NC(=O)[C@H](CCCCN)NC(=O)[C@H](CCCNC(=N)N)NC(=O)[C@@H]1CCCN1C(=O)[C@@H](N)Cc1ccccc1)C(=O)O    7.00
CC[C@H](C)[C@H](NC(=O)[C@H](Cc1ccc(O)cc1)NC(=O)[C@H](CC(C)C)NC(=O)[C@H](Cc1c[nH]cn1)NC(=O)CNC(=O)[C@@H](NC(=O)[C@@H]1CCCN1C(=O)[C@@H](N)Cc1ccccc1)[C@@H](C)CC)C(=O)N[C@@H](Cc1ccccc1)C(=O)N[C@@H](C)C(=O)O (H-FPIGHLYIFA-OH; N-terminus and C-terminus assumed)    9.40
CC[C@H](C)[C@H](NC(=O)[C@H](Cc1ccc(O)cc1)NC(=O)[C@H](CO)NC(=O)[C@@H](NC(=O)[C@H](CCC(=O)O)NC(=O)[C@@H](NC(=O)[C@H](CC(C)C)NC(=O)[C@H](C)NC(=O)[C@H](CCCNC(=N)N)NC(=O)[C@@H]1CCCN1C(=O)[C@@H](N)Cc1ccccc1)[C@@H](C)CC)[C@@H](C)O)C(=O)O (H-FPRALIETSYI-OH; N-terminus and C-terminus assumed)    6.90
CC[C@H](C)[C@H](NC(=O)[C@@H]1CCCN1C(=O)[C@@H]1CCCN1C(=O)[C@H](Cc1ccc(O)cc1)NC(=O)[C@H](CO)NC(=O)[C@@H](NC(=O)[C@H](Cc1c[nH]cn1)NC(=O)[C@@H]1CCCN1C(=O)[C@@H](N)Cc1ccccc1)[C@@H](C)CC)C(=O)O    8.85

# molecule CC[C@H](C)[C@H](NC(=O)[C@H](CC(C)C)NC(=O)[C@H](CC(C)C)NC(=O)CNC(=O)[C@H](C)NC(=O)[C@H](CCCCN)NC(=O)[C@@H]1CCCN1C(=O)[C@@H](N)Cc1ccccc1)C(=O)N[C@H](C(=O)N[C@H](C(=O)O)C(C)C)[C@@H](C)CC (H-FPKAGLLIIV-OH; N-terminus and C-terminus assumed) ; its pIC50 = 8.96

# molecule CC[C@H](C)[C@H](NC(=O)[C@@H]1CCCN1C(=O)[C@H](Cc1ccc(O)cc1)NC(=O)[C@H](CC(N)=O)NC(=O)[C@H](CCSC)NC(=O)[C@@H](NC(=O)[C@@H](NC(=O)[C@@H]1CCCN1C(=O)[C@@H](N)Cc1ccccc1)[C@@H](C)O)[C@@H](C)O)C(=O)O ; its pIC50 = 8.82

# molecule CC[C@H](C)[C@H](NC(=O)[C@H](Cc1ccc(O)cc1)NC(=O)[C@H](CO)NC(=O)[C@@H](NC(=O)[C@H](CCC(=O)O)NC(=O)[C@@H](NC(=O)[C@H](CC(C)C)NC(=O)[C@H](C)NC(=O)[C@H](CCCNC(=N)N)NC(=O)[C@@H]1CCCN1C(=O)[C@@H](N)Cc1ccccc1)C(C)C)[C@@H](C)O)C(=O)O ; its pIC50 = 7.23

# molecule CC[C@H](C)[C@H](NC(=O)[C@@H](NC(=O)[C@H](Cc1ccc(O)cc1)NC(=O)[C@H](CC(C)C)NC(=O)[C@H](Cc1c[nH]cn1)NC(=O)CNC(=O)[C@@H](NC(=O)[C@@H]1CCCN1C(=O)[C@@H](N)Cc1ccccc1)[C@@H](C)CC)[C@@H](C)CC)C(=O)O ; its pIC50 = 9.22
